Values compiled from paper PMC3927067.

# target.of.assay: hOX2R (Homo sapiens, UniProt O43614)
# Sequence (O43614 whole entry): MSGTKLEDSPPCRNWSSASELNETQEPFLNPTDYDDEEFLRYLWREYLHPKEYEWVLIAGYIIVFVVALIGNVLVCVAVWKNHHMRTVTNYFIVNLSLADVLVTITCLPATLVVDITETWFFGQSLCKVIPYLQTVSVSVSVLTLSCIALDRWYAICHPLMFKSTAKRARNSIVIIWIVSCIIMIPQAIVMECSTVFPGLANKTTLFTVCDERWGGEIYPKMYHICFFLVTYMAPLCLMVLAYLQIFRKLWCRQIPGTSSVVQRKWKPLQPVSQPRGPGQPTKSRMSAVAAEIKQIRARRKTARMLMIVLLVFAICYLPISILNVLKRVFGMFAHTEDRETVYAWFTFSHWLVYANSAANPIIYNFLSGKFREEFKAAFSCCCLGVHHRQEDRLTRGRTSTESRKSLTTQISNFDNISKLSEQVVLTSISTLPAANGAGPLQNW
# experiment.summary: Orexin 2 receptor binding assay
# protocol.conditions: mean of replicates; read-out: OX2R Ki
quantity.measured: Ki (nM)
The figure you give is taken to be in nM; do not add the unit.

Please fill in: Ki reported for Cc1ccc(-n2nccn2)c(C(=O)N2CC3CC2CCN3c2ncc3cc(F)ccc3n2)c1 (stereo not shown) = 2740

Please fill in: Ki reported for Cc1ccc(-n2nccn2)c(C(=O)N2CCCN(c3ncc4ccccc4n3)CC2)c1 = 0.8

Please fill in: Ki reported for C[C@@H]1CCN(c2ncc3cc(F)ccc3n2)CCN1C(=O)c1cc(Cl)ccc1-n1nccn1 = 0.2

Please fill in: Ki reported for O=C(c1cc(Cl)ccc1-n1nccn1)N1CC2CC(C1)N(c1ncc3cc(F)ccc3n1)C2 (stereo not shown) = 0.6

* * *

# target.of.assay: hOX1R (Homo sapiens)
# Sequence (O43613 whole entry): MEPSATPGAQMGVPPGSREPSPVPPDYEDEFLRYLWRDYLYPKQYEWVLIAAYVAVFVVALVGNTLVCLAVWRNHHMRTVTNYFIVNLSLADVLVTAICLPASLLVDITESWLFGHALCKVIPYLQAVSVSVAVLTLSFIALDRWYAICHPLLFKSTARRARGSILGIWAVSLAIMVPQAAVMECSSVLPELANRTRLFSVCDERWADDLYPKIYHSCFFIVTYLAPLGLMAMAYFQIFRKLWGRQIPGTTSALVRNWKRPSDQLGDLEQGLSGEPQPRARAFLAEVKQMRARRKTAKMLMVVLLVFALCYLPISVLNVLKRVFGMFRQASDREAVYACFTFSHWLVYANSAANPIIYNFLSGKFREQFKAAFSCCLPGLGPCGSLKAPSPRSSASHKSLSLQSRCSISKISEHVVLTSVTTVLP
# experiment.summary: Orexin 1 receptor binding assay
# protocol.conditions: mean of replicates; read-out: OX1R Ki
quantity.measured: Ki

Please fill in: Ki reported for Cc1ccc(-n2nccn2)c(C(=O)N2CC3CC2CCN3c2ncc3cc(F)ccc3n2)c1 (stereo not shown) = > 1700 nM

Please fill in: Ki reported for Cc1ccc(-n2nccn2)c(C(=O)N2CCCN(c3ncc4ccccc4n3)CC2)c1 = 1.2 nM

Please fill in: Ki reported for C[C@@H]1CCN(c2ncc3cc(F)ccc3n2)CCN1C(=O)c1cc(Cl)ccc1-n1nccn1 = 0.6 nM

Please fill in: Ki reported for O=C(c1cc(Cl)ccc1-n1nccn1)N1CC2CC(C1)N(c1ncc3cc(F)ccc3n1)C2 (stereo not shown) = 0.4 nM

* * *

# target.of.assay: UniProtKB O43614
# experiment.summary: Orexin 2 receptor binding assay
# protocol.conditions: supplement, unlabelled mean below the replicates; Ki and nM taken from b8/Table 3; read-out: OX2R mean of replicates
quantity.measured: Ki (nM)
The figure you give is taken to be in nM; do not add the unit.

Please fill in: Ki reported for Cc1ccc(-n2nccn2)c(C(=O)N2CC3CC2CCN3c2ncc3cc(F)ccc3n2)c1 (stereo not drawn) = 2740

Please fill in: Ki reported for O=C(c1cc(Cl)ccc1-n1nccn1)N1CC2CC(C1)N(c1ncc3cc(F)ccc3n1)C2 (stereo not drawn) = 0.615

Please fill in: Ki reported for C[C@@H]1CCN(c2ncc3cc(F)ccc3n2)CCN1C(=O)c1cc(Cl)ccc1-n1nccn1 = 0.15

* * *

# experiment.summary: Brain/plasma ratio, iv infusion study
# protocol.conditions: rat, brain and plasma, iv
quantity.measured: Kp

Please fill in: Kp reported for Cc1ccc(-n2nccn2)c(C(=O)N2CCN(c3nc4cc(Cl)ccc4o3)CC[C@H]2C)c1 [Compound 7, Suvorexant] = 0.6 to 1.2
